Sourced from patent US10829473B2

target: F508delCFTR (Homo sapiens, UniProt P13569, DEL508-508)
Construct: expressed in transfected cells; host or cells: CFBE41o- human lung derived epithelial cells (CFBE41o-F508delCFTR-HRP), doxycycline-inducible
Sequence (P13569 with tags, fused parts or gaps DEL508-508): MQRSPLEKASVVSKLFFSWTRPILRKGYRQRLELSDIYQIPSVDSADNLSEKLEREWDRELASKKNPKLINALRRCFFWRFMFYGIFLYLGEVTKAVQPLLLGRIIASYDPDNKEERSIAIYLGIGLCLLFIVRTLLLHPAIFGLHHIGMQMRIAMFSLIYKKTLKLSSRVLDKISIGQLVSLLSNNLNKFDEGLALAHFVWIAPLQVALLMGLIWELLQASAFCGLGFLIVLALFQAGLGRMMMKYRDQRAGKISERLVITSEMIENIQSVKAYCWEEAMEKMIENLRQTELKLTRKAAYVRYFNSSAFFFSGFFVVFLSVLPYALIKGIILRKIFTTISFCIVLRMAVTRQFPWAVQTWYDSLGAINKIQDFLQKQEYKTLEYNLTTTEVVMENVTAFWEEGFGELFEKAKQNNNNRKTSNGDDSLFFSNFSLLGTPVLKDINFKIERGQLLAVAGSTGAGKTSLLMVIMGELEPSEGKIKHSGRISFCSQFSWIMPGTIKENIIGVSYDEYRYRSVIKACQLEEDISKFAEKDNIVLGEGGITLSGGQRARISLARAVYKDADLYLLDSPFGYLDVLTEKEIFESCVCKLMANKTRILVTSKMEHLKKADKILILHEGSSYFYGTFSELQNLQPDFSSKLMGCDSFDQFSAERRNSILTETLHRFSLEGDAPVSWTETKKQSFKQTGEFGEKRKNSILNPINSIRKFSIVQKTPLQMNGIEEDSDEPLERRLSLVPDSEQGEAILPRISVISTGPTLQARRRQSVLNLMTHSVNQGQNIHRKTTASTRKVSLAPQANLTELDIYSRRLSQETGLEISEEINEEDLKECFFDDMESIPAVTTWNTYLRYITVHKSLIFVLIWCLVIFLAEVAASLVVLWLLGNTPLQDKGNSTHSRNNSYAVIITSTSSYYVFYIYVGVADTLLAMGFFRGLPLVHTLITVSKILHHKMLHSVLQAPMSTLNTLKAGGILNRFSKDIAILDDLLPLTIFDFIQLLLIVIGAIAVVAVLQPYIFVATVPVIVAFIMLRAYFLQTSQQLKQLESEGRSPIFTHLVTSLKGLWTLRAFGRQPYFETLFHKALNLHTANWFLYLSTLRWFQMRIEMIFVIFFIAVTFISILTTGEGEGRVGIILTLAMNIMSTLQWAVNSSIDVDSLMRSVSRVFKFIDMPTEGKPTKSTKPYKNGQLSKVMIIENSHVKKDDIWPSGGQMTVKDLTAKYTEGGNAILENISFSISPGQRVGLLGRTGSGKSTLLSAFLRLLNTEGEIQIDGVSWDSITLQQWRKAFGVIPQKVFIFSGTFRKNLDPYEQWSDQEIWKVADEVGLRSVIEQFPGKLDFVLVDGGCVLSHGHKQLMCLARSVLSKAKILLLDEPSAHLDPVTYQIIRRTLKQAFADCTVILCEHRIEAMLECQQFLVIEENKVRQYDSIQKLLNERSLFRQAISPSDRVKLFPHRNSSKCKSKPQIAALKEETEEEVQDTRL
protocol notes: Cell Surface Expression-Horse Radish Peroxidase (CSE-HRP) Assay
Type: cell-based
condition set: test compound alone, without co-corrector; read-out: EC50 (without co-corrector)
pEC50: −log10 of the molar value.
measurement kind: pEC50

Observe how each entry below is paired with its result.
O=C(NS(=O)(=O)Cc1ccccc1)C1(c2ccc(Cl)cc2Cl)CC1 [Example III-104]    < 5.00
COc1cc(C2CCC2)cc(OC)c1C1(C(=O)NS(=O)(=O)c2cccc3ncn(C)c23)CC1 [Example III-123]    5.00 to 5.52
COc1ccc(C(C)(C)OC)cc1C1(C(=O)NS(=O)(=O)c2cccc3nc(C)ccc23)CC1 [II-99]    > 5.52
Cc1noc(C)c1S(=O)(=O)NC(=O)C1(c2ccc(Cl)cc2Cl)CC1 [Example III-12]    < 5.00
O=C(NS(=O)(=O)c1ccccc1OC(F)(F)F)C1(c2ccc(Cl)cc2Cl)CC1 [Example III-13]    5.00 to 5.52

Exercise: Write down the reported pEC50 of COc1ccc(Br)cc1C1(C(=O)NS(=O)(=O)c2cccc3ncccc23)CC1 [Example I-18] , test system: F508delCFTR (Homo sapiens, UniProt P13569, DEL508-508).
Solution: > 5.52

Exercise: Kindly state the measured pEC50 obtained for COc1ccc(C)c(OC)c1C1(C(=O)NS(=O)(=O)c2cccc3ccc(C)nc23)CC1 [II-39] with F508delCFTR (Homo sapiens, UniProt P13569, DEL508-508).
Solution: > 5.52

Exercise: Param readout= pEC50; system= F508delCFTR (Homo sapiens, UniProt P13569, DEL508-508); entry= COC(=O)c1ccc(S(=O)(=O)NC(=O)C2(c3ccc(Cl)cc3Cl)CC2)o1 [Example III-62] ; returns value.
Solution: < 5.00

###

target: F508delCFTR (Homo sapiens, UniProt P13569, DEL508-508)
Construct: expressed in transfected cells; host or cells: CFBE41o- human lung derived epithelial cells (CFBE41o-F508delCFTR-HRP), doxycycline-inducible
protocol notes: Cell Surface Expression-Horse Radish Peroxidase (CSE-HRP) Assay
Type: cell-based
condition set: test compound alone, without co-corrector; read-out: EC50 (without co-corrector)
measurement kind: EC50

Exercise: Please look up its EC50: COc1cc(C2CCC2)cc(OC)c1C1(C(=O)NS(=O)(=O)c2cccc3[nH]ncc23)CC1
Solution: 3 to 10 µM

Exercise: Look at this compound and give its reported EC50. COc1ccc2c(S(=O)(=O)NC(=O)C3(c4cc(C5CC5)cnc4OC(C)C)CC3)cccc2n1
Solution: < 3 µM

Exercise: Fill blank: measured EC50 of the compound CC(C)c1nc(C(F)(F)F)ccc1C1(C(=O)NS(=O)(=O)c2cccc3ncccc23)CC1 is ____.
Solution: 3 to 10 µM

Exercise: Requested field: EC50. Item: COc1ncc(C(F)(F)F)cc1C1(C(=O)NS(=O)(=O)c2cccc3ccn(C)c23)CC1
Solution: < 3 µM

###

target: F508delCFTR (Homo sapiens, UniProt P13569, DEL508-508)
Construct: expressed in transfected cells; host or cells: CFBE41o- human lung derived epithelial cells (CFBE41o-F508delCFTR-HRP), doxycycline-inducible
protocol notes: Cell Surface Expression-Horse Radish Peroxidase (CSE-HRP) Assay;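 on EC50 (with co-corrector): co-corrector chromenyl benzoic acid corrector at 2 or 3 µM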
Format: cell-based
condition set: with co-corrector; read-out: EC50 (with co-corrector)
measurement kind: EC50

CCOc1ccc(OC)c(C2(C(=O)NS(=O)(=O)c3cccc4ncccc34)CC2)c1 [Example I-31]    < 3 µM

Exercise: Requested field: EC50. Item: CCOc1ccc(C)cc1C1(C(=O)NS(=O)(=O)c2cccc3[nH]ccc23)CC1 [II-85]
Solution: < 3 µM

Exercise: Request the reported EC50 associated with COc1ccc(C(C)(C)OC)cc1C1(C(=O)NS(=O)(=O)c2cccc3nc(C)ccc23)CC1 [II-99]
Solution: < 3 µM

Exercise: # query: EC50 of entry COc1ccc(C2CCC2)cc1C1(C(=O)NS(=O)(=O)c2cccc3nc(C)ccc23)CC1 [Example I-63]
Solution: < 3 µM
